Target: Amine oxidase [flavin-containing] A (Homo sapiens, UniProt P21397); further: assay procedure not described here
Sequence (P21397 whole entry): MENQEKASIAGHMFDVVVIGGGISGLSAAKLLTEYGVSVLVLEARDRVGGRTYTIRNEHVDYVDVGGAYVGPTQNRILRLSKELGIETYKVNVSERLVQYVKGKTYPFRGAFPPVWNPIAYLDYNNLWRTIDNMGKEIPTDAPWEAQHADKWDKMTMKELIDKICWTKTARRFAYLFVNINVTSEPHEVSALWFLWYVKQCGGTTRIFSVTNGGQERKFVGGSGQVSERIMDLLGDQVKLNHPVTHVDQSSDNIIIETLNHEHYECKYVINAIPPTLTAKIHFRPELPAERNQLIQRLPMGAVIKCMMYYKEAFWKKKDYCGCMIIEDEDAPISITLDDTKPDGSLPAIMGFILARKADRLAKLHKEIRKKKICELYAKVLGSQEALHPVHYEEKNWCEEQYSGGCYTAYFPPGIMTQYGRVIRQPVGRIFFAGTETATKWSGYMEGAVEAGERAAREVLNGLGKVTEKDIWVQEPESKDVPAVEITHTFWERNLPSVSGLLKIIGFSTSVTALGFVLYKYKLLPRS
Assay type: functional
So I've got a bunch of molecules here, and I need their AC50 values.

State recorded AC50 for all listed molecules.
1. CC(=O)NC[C@H]1CN(c2ccc(N3CCOCC3)c(F)c2)C(=O)O1
2. CCOC(=O)[C@H](CCc1ccccc1)N[C@@H](C)C(=O)N1Cc2ccccc2C[C@H]1C(=O)O
3. CN1C2CCCC1CC(NC(=O)c1nn(C)c3ccccc13)C2 (centres undefined)
4. CO[C@@H]1[C@@H](OC(N)=O)[C@@H](O)[C@H](Oc2ccc3c(O)c(NC(=O)c4ccc(O)c(CC=C(C)C)c4)c(=O)oc3c2C)OC1(C)C

Key:
> 30 µM
> 10 µM
> 10 µM
> 30 µM
